Values compiled from patent US20210179707A1.

# subject_of_test: T1, hPAR1 (Biotin) (human, biotin on the C-terminal lysine (GGGGSK-biotin, SKB))
# T1 construct: also called hPAR1 peptide
# T1 peptide: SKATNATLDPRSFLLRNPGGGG
# assay_method_text: ELISA, hybridoma supernatant
property_name: Binding to PAR1 ratio (ratio)
Give just the numeric value; ratio need not be written.

Reported Binding to PAR1 ratio of 5H.RF2 (antibody, IgG2a, V domains shown, Human variable regions on mouse constant regions; isotype IgG2a/κ; also called 5H.RF2.A5b.D3.C2; MoB5H F2) VH: QVQLQQWGAGLLKPSETLALTCAVYGGSLSDYYWSWIRQPPGKGLEWIGEINHSGTTNYNPSLKSRVTISVDTSKKQFSLKLSSVTAADTAVYYCAIEYSNSRGYYYGMDVWGQGTTVTVSS VL: DIQMTQSPSSLSASAGDRITITCRASQTISNYLNWYQQKPGKAPKLLIYAASSLQSGVPSRFSGSGSGTDFTLTISSLQPEDFASYYCRQNYNTPLTFGGGTKVEIK : 1
